Data origin, for the record: patent US20220298163A1

Parameter: bioavailability. Scope: all listed entries.
Assay: Rat pharmacokinetic study
Type: in vivo, Male Sprague Dawley rats
Settings: male, Sprague Dawley, plasma; rat, oral bioavailability, PO 5 mg·kg^−1 vs IV 1 mg·kg^−1
Express your answer in %, writing the number without its unit.

In [3]: df
Out[3]:
                                   compound  number
0  C=CC(=O)N1CCC(C2CCNc3c(C(N)=O)c(-c4cc(OC)c(C5CC5)c(OC)c4)nn32)CC1 (single isomer, unassigned) [Example A2a]    73.7

Now examine the next entry.
Lab note: measured bioavailability of C=CC(=O)Nc1ccccc1C1CCNc2c(C(N)=O)c(-c3cc(OC)c(OC)c(OC)c3)nn21 (centres unmarked) [167^#] was 11.8

----------
Target: Tec (Homo sapiens, UniProt P42680)
Sequence (P42680 1-631): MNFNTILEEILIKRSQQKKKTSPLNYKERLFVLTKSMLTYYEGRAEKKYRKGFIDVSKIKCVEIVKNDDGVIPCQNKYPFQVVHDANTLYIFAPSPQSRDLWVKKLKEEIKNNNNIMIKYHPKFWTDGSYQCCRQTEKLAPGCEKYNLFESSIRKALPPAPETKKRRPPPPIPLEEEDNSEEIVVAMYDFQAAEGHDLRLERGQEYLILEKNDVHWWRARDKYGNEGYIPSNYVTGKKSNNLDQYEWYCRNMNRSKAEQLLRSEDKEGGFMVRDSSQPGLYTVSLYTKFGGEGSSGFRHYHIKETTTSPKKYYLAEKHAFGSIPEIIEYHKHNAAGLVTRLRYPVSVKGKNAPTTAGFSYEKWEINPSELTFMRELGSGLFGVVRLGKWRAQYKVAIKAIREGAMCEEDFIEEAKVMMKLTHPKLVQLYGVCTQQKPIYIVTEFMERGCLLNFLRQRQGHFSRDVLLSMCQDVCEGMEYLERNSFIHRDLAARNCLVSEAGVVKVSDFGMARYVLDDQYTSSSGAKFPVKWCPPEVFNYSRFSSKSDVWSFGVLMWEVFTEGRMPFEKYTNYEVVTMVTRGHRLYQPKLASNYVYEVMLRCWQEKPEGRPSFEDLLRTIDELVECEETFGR
Assay: Biochemical kinase selectivity: IC50 determination of Tec
Details: TR-FRET, 280 μM ATP
property: IC50

>>> df
                                   compound     result
0  C=CC(=O)N1CCC(C2CCNc3c(C(N)=O)c(-c4cc(Cl)c(C)c(OC)c4)nn32)CC1 (stereo not drawn)     174 nM
1  C=CC(=O)N1CCC(C2CCNc3c(C(N)=O)c(-c4cc(C)c(Br)c(C)c4)nn32)CC1 (stereo not drawn)     352 nM
2  C=CC(=O)N1CCC(C2CCNc3c(C(N)=O)c(-c4cc(OC)c(C(C)c5ccccc5)c(OC)c4)nn32)CC1 (stereo not drawn)      35 nM
3  C=CC(=O)N1CCC(C2CCNc3c(C(N)=O)c(-c4cc(Cl)c(OC)c(Cl)c4)nn32)CC1 (stereo not drawn)    1000 nM
4  C=CC(=O)N1CCC(C2CCNc3c(C(N)=O)c(-c4cc(OC)c(-c5cc[nH]n5)c(OC)c4)nn32)CC1 (stereo not drawn)  > 1000 nM

Now examine the next entry.
Lab note: measured IC50 of C=CC(=O)N1CCC(C2CCNc3c(C(N)=O)c(-c4cc(OC)c(C(C)O)c(OC)c4)nn32)CC1 (stereo not drawn) was 974 nM

----------
Target: Tec (Homo sapiens, UniProt P42680)
Assay: Biochemical kinase selectivity: IC50 determination of Tec
Settings: TR-FRET, 280 μM ATP
In plain terms, low IC50, meaning strictly below 200 nM, gives Criterion met, and everything else gives Criterion not met.

>>> df
                                   molecule              label
0  C=CC(=O)N1CCC(C2CCNc3c(C(N)=O)c(-c4cc(OC)c(C(F)(F)F)c(OC)c4)nn32)CC1 (stereo not drawn)  Criterion not met
1  C=CC(=O)N1CCC2Nc3c(C(N)=O)c(-c4cc(OC)c(C)c(OC)c4)nn3CC2C1 (stereo not drawn) [Example D2]  Criterion not met
2  C=CC(=O)N1CC(C2CCNc3c(C(N)=O)c(-c4cc(OC)c(Br)c(OC)c4)nn32)C1 (stereo not drawn)      Criterion met

Query block: I'd appreciate it if you could check whether C=CC(=O)N1CCC(C2CCNc3c(C(N)=O)c(-c4cc(Br)c(C)c(Br)c4)nn32)CC1 (stereo not drawn) has IC50 smaller than 200 nM.
Result block: Criterion not met

Query block: I'd appreciate it if you could check whether C=CC(=O)N1CCC(C2CCNc3c(C(N)=O)c(-c4cc(OC)c(C5CC5)c(OCC)c4)nn32)CC1 (stereo not drawn) has IC50 smaller than 200 nM.
Result block: Criterion not met

Query block: I'd appreciate it if you could check whether C=CC(=O)N1CC2CNc3c(C(N)=O)c(-c4cc(OC)c(C)c(OC)c4)nn3C2C1 (stereo not drawn) has IC50 smaller than 200 nM.
Result block: Criterion not met

Query block: I'd appreciate it if you could check whether C=CC(=O)N1CCC(C2CCNc3c(C(N)=O)c(-c4ccc(C)c(OC)c4)nn32)CC1 (stereo not drawn) [Example 174, reference compound] has IC50 smaller than 200 nM.
Result block: Criterion met

----------
Parameter: IC50. Scope: all listed entries.
Biological target: phosphorylated Btk at Tyr223 (Homo sapiens)
Construct: determine the endogenous levels of phosphorylated Btk at Tyr223; endogenous in cells; host or cells: Ramos cells (CRL-1596, ATCC)
Sequence (Q06187 whole entry): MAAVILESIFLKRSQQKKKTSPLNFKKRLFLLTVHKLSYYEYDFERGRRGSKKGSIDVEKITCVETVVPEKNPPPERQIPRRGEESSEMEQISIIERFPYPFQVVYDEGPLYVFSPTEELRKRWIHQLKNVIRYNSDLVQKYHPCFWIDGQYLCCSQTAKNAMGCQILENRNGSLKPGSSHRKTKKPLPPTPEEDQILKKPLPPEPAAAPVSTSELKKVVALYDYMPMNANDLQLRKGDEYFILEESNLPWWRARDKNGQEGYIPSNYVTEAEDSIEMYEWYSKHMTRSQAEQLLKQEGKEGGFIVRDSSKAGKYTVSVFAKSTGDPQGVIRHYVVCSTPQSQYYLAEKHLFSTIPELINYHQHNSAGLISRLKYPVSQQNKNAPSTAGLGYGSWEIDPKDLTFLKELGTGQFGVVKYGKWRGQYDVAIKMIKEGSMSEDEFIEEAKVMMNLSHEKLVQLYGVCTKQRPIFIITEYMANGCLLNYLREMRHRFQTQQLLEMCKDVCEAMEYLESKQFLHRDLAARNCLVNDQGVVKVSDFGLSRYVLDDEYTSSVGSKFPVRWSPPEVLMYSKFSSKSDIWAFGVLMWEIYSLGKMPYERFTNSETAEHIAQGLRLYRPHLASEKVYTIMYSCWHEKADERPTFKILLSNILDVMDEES
Assay: Btk pY223 cellular assay (HTRF, Ramos cells)
Assay type: cell-based
Settings: compound 3 hours, pervanadate or Na3VO4 stimulation, read-out: IC50 (nM) in cell Btk pY223
Express your answer in nM, writing the number without its unit.

# count of solved cases: 3
>>> df
                                   molecule  property  number
0  C=CC(=O)Nc1ccccc1C1CCNc2c(C(N)=O)c(-c3cc(OC)c(OC)c(OC)c3)nn21 (centres unmarked)      IC50    83.5
1  C=CC(=O)N1CC(C2CCNc3c(C(N)=O)c(-c4cc(OC)c(C)c(OC)c4)nn32)C1 (centres unmarked)      IC50    93.1
2  C=CC(=O)N1CCC(C2CCNc3c(C(N)=O)c(-c4cc(OC)c(C5CC5)c(OCC)c4)nn32)CC1 (centres unmarked)      IC50    42.9

Known value: phosphorylated Btk at Tyr223 (Homo sapiens) IC50 of the molecule C=CC(=O)N1CCC(C2CCNc3c(C(N)=O)c(-c4cc(C)c(Br)c(C)c4)nn32)CC1 (centres unmarked) equals 143

Known value: phosphorylated Btk at Tyr223 (Homo sapiens) IC50 of the molecule C=CC(=O)Nc1ccccc1C1CCNc2c(C(N)=O)c(-c3cc(Cl)c(OC)c(Cl)c3)nn21 (centres unmarked) equals 28.2

Known value: phosphorylated Btk at Tyr223 (Homo sapiens) IC50 of the molecule C=CC(=O)N1CCC(C2CCNc3c(C(N)=O)c(-c4cc(OC)c(C(C)O)c(OC)c4)nn32)CC1 (centres unmarked) equals 258

Known value: phosphorylated Btk at Tyr223 (Homo sapiens) IC50 of the molecule C=CC(=O)N1CCC(C2CCNc3c(C(N)=O)c(-c4cc(C)c(C)c(OC)c4)nn32)CC1 (centres unmarked) equals 41.8

Known value: phosphorylated Btk at Tyr223 (Homo sapiens) IC50 of the molecule C=CC(=O)N1CCC(C2CCNc3c(C(N)=O)c(-c4cc(OC)c(I)c(OC)c4)nn32)CC1 (centres unmarked) equals 14.8

Known value: phosphorylated Btk at Tyr223 (Homo sapiens) IC50 of the molecule C=CC(=O)N1CCC(C2CCNc3c(C(N)=O)c(-c4cc(Cl)c(C)c(OC)c4)nn32)CC1 (centres unmarked) equals 65

Known value: phosphorylated Btk at Tyr223 (Homo sapiens) IC50 of the molecule C=CC(=O)N1CCC(C2CCNc3c(C(N)=O)c(-c4cc(OC)c(/C=C/c5ccccc5)c(OC)c4)nn32)CC1 (centres unmarked) equals 66.8

Known value: phosphorylated Btk at Tyr223 (Homo sapiens) IC50 of the molecule C=CC(=O)N1CCC(C2CCNc3c(C(N)=O)c(-c4cc(OC)c(C(F)(F)F)c(OC)c4)nn32)CC1 (centres unmarked) equals 36.7

Known value: phosphorylated Btk at Tyr223 (Homo sapiens) IC50 of the molecule C=CC(=O)N1CCC(C2CCNc3c(C(N)=O)c(-c4cc(OC)c(C)c(OCC)c4)nn32)CC1 (centres unmarked) equals 37.3

Known value: phosphorylated Btk at Tyr223 (Homo sapiens) IC50 of the molecule C=CC(=O)N1CCC(C2CCNc3c(C(N)=O)c(-c4cc(Cl)c(C5CC5)c(OC)c4)nn32)CC1 (centres unmarked) equals 50.5

Known value: phosphorylated Btk at Tyr223 (Homo sapiens) IC50 of the molecule C=CC(=O)N1CC2CNc3c(C(N)=O)c(-c4cc(OC)c(C)c(OC)c4)nn3C2C1 (centres unmarked) equals 49.6

Known value: phosphorylated Btk at Tyr223 (Homo sapiens) IC50 of the molecule C=CC(=O)N1CC(C2CCNc3c(C(N)=O)c(-c4cc(OC)c(Br)c(OC)c4)nn32)C1 (centres unmarked) equals 45.7

Known value: phosphorylated Btk at Tyr223 (Homo sapiens) IC50 of the molecule C=CC(=O)N1CCC(C2CCNc3c(C(N)=O)c(-c4cc(Cl)c(C)c(Cl)c4)nn32)CC1 (centres unmarked) equals 148

Known value: phosphorylated Btk at Tyr223 (Homo sapiens) IC50 of the molecule C#CC(=O)N1CCC(C2CCNc3c(C(N)=O)c(-c4cc(OC)c(C)c(OC)c4)nn32)CC1 (centres unmarked) equals 12.3
